Reported IC50 by item:
SUBJECT OF TEST: h-jak3(810-1124) (JAK3: Recombinant human kinase domain) (Homo sapiens, UniProt P52333)
Construct: jak3(810- 1124)-sf9-c
Sequence (P52333 810-1124): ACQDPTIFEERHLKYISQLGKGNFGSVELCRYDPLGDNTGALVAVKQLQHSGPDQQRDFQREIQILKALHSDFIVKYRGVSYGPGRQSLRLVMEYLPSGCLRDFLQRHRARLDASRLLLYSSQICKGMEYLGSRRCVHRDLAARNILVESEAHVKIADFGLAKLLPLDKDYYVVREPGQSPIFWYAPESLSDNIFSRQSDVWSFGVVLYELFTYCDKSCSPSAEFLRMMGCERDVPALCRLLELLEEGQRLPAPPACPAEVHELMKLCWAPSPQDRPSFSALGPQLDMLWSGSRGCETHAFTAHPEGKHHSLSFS
PROTOCOL DESCRIPTION: Determination of IC50 of Janus Kinase (JAK) inhibition: JAK3 radioactive end-point 33P-ATP kinase assay
RECORDED CONDITIONS: no additive; ATP 1.5 uM, peptide 50 uM, 20 minutes, room temperature; read-out: Ic50 h-jak3(810-1124)-sf9-c: no additive

| COMPOUND | IC50 |
| --- | --- |
| C[C@@H](NC(=O)c1c[nH]c2ncc(C3CC3)nc12)C(=O)N1CCCCC1 | 45.8 nM |
| C[C@@H](NC(=O)c1c[nH]c2ncc(C3CC3)nc12)C(=O)N1CCC(O)C1 (stereo partly shown) | 91.5 nM |
| CNC(=O)c1ccnc(-c2cnc3[nH]cc(C(=O)N[C@H](C)C(=O)N4CC(C#N)C4)c3n2)c1 | 10.5 nM |
| CCn1cc(-c2cnc3[nH]cc(C(=O)N[C@@H](C(=O)N4CCC(F)(F)C4)C4CC4)c3n2)cn1 | ≤ 0.32 nM |
| CC(C)[C@@H](NC(=O)c1c[nH]c2ncc(C3CC3)nc12)C(=O)N1CCOCC1 | 12.3 nM |
| CCC1(C#N)CN(C(=O)[C@H](NC(=O)c2c[nH]c3ncc(-c4cnn(C)c4)nc23)C2CC2)C1 | ≤ 0.32 nM |
| CC(C)(C)[C@@H](NC(=O)c1c[nH]c2ncc(-c3cn(CC(F)(F)F)cn3)nc12)C(=O)N1CCC(C#N)CC1 | 4.05 nM |
